Target: Guanylate cyclase soluble subunit alpha-1 (Rattus norvegicus) (UniProt P19686)
Sequence (P19686 whole entry): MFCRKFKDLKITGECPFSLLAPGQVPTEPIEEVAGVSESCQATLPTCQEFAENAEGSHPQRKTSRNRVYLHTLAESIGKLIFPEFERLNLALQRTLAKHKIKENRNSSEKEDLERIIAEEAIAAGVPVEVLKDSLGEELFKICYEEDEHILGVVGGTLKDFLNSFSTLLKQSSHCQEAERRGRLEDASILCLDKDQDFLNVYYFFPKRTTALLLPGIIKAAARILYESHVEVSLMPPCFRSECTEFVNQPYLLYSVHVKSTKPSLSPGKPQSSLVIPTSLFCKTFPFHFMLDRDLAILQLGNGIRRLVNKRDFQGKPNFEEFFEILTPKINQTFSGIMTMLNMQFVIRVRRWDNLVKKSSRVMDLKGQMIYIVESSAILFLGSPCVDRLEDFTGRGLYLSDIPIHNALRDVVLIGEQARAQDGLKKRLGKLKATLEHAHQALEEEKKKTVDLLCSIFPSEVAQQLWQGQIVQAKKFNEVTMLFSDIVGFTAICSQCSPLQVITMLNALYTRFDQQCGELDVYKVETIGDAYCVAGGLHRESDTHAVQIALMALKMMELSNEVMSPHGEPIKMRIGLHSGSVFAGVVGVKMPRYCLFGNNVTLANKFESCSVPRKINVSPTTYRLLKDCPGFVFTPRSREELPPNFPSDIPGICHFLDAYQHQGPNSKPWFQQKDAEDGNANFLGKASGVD
Assay: Activation of recombinant rat sGC alpha1 subunit expressed in CHO cells assessed as induction of [32P-cGMP] formation using alpha-[32P-GTP] as substrate measured after 6 mins by luminescence assay
Assay type: cell-based
Settings: filed as activator
MEASURED PARAMETER: MEC (nM)

[[record]]
compound = "C[C@H]([C@H](C(=O)Nc1cccc(CC2(C(=O)O)CC2)c1)c1ccc(Cl)cc1)C(F)(F)F"
unit_tag = "nM"
measurement = 20

[[record]]
compound = "C[C@H]([C@H](C(=O)Nc1cc(C2(CC(=O)O)COC2)ccc1Cl)c1ccc(Cl)cc1)C(F)(F)F"
unit_tag = "nM"
measurement = 3

[[record]]
compound = "O=C(O)[C@H]1Cc2cccc(NC(=O)[C@H](c3ccc(CN4N=C(c5ccccc5)OCC4=O)cc3)C3CCCC3)c2C1"
unit_tag = "nM"
measurement = 30

[[record]]
compound = "O=C(O)CCc1cccc(NC(=O)[C@@H](c2ccc(CN3N=C(c4ccccc4)OCC3=O)cc2)C2CCCC2)c1"
unit_tag = "nM"
measurement = 300

[[record]]
compound = "C[C@H]([C@H](C(=O)Nc1cc(C[C@H](C)C(=O)O)ccc1Cl)c1ccc(Cl)cc1)C(F)(F)F"
unit_tag = "nM"
measurement = 10

[[record]]
compound = "O=C(N[C@@H](CO)c1ccccc1)C(c1ccc(Cn2nc(-c3ccccc3)c3ccccc3c2=O)cc1)C1CCCC1 (stereo partly specified)"
unit_tag = "nM"
measurement = 100

[[record]]
compound = "O=C(O)CCc1cccc(NC(=O)[C@H](c2ccc(CN3N=C(c4ccccc4)OCC3=O)cc2)C2CCCC2)c1"
unit_tag = "nM"
measurement = 10

[[record]]
compound = "C[C@H]([C@H](C(=O)Nc1cc([C@@H](CC(=O)O)C2CC2)ccc1Cl)c1ccc(Cl)cc1)C(F)(F)F [RUNCACIGUAT]"
unit_tag = "nM"
measurement = 1.8


1 = CC[C@@H](C)[C@H](C(=O)Nc1cccc(CCC(=O)O)c1C)c1ccc(CN2N=C(c3ccccc3)OCC2=O)cc1
2 = C[C@H]([C@H](C(=O)Nc1ccc(Cl)c(CC2(C(=O)O)CC2)c1)c1ccc(Cl)cc1)C(F)(F)F
3 = Cc1c(CCC(=O)O)cccc1NC(=O)[C@H](c1ccc(Cl)cc1)C1CCCC1
4 = C[C@H]([C@H](C(=O)Nc1cc(CC2(C(=O)O)CC2)ccc1F)c1ccc(Cl)cc1)C(F)(F)F
# input Task field, ranking: reported MEC, descending order. Rank the items, then write their labels in that order.
# output 2, 3, 1, 4
(2: 300 nM, 3: 200 nM, 1: 1 nM, 4: 0.3 nM)

Where do these numbers come from? They come from ChEMBL document CHEMBL4808182.
